- measurement-target: T1, soluble human FcRn (shFcRn) (human, UniProt P55899 24-297; P61769 21-119)
- T1 construct: Biotinylated for the ELISA, amine-coupled to a CM5 chip for SPR; also called biotinylated shFcRn
- experimental-details: SPR pH 6
Bridge positions count the residues as written; N and C are the ends. Square brackets hold non-standard residues; d marks the D form. Ends that are not written are not given here. Phe(4-NH2) = Nc1ccc(C[C@H](N)C(=O)O)cc1; Phe(4-Me) = Cc1ccc(C[C@H](N)C(=O)O)cc1; Pen = CC(C)(S)[C@H](N)C(=O)O
endpoint-name: Kd (nM)

Study these solved cases before continuing.
- binder: "QRF[Pen]TGH[Phe(4-NH2)]GGLYPCNGP-NH2 (disulfide 4-14; N-terminus assumed; SMILES CC(C)C[C@@H]1NC(=O)CNC(=O)CNC(=O)[C@H](Cc2ccc(N)cc2)NC(=O)[C@H](Cc2c[nH]cn2)NC(=O)CNC(=O)[C@H]([C@@H](C)O)NC(=O)[C@@H](NC(=O)[C@H](Cc2ccccc2)NC(=O)[C@H](CCCNC(=N)N)NC(=O)[C@@H](N)CCC(N)=O)C(C)(C)SSC[C@@H](C(=O)N[C@@H](CC(N)=O)C(=O)NCC(=O)N2CCC[C@H]2C(N)=O)NC(=O)[C@@H]2CCCN2C(=O)[C@H](Cc2ccc(O)cc2)NC1=O) [Peptide No. 55]"
  Kd, nM: 1000
- binder: "QRF[Pen]TGH[Phe(4-Me)]GGLYPCNGP-NH2 (disulfide 4-14; N-terminus assumed; SMILES Cc1ccc(C[C@@H]2NC(=O)[C@H](Cc3c[nH]cn3)NC(=O)CNC(=O)[C@H]([C@@H](C)O)NC(=O)[C@@H](NC(=O)[C@H](Cc3ccccc3)NC(=O)[C@H](CCCNC(=N)N)NC(=O)[C@@H](N)CCC(N)=O)C(C)(C)SSC[C@@H](C(=O)N[C@@H](CC(N)=O)C(=O)NCC(=O)N3CCC[C@H]3C(N)=O)NC(=O)[C@@H]3CCCN3C(=O)[C@H](Cc3ccc(O)cc3)NC(=O)[C@H](CC(C)C)NC(=O)CNC(=O)CNC2=O)cc1) [Peptide No. 90]"
  Kd, nM: 200
- binder: "QRF[Pen]TGHFGGLYPCNGP-NH2 (disulfide 4-14; N-terminus assumed; SMILES CC(C)C[C@@H]1NC(=O)CNC(=O)CNC(=O)[C@H](Cc2ccccc2)NC(=O)[C@H](Cc2c[nH]cn2)NC(=O)CNC(=O)[C@H]([C@@H](C)O)NC(=O)[C@@H](NC(=O)[C@H](Cc2ccccc2)NC(=O)[C@H](CCCNC(=N)N)NC(=O)[C@@H](N)CCC(N)=O)C(C)(C)SSC[C@@H](C(=O)N[C@@H](CC(N)=O)C(=O)NCC(=O)N2CCC[C@H]2C(N)=O)NC(=O)[C@@H]2CCCN2C(=O)[C@H](Cc2ccc(O)cc2)NC1=O) [Peptide No. 32]"
  Kd, nM: 250

P: QRFCTGHXGGLYPCNGP (Pen 4; 2-napthylalanine 8; disulfide 4-14; C-terminal amide) [Peptide No. 62]
Q: QRFCTGHXGGLYPCNGP (Pen 4; 3-PyridylAla 8; disulfide 4-14; C-terminal amide) [Peptide No. 59]
Could you point out whether the larger Kd belongs to P or to Q ? Return value: the label identifying the chosen record.
Q
(Q: 19000 nM, P: 11000 nM)
